- TARGET OR SYSTEM: Trace amine-associated receptor 1 (Homo sapiens)
- EXPERIMENTAL DETAILS: blockers of beta-PEA-driven TAAR1 calcium signal – Fluo-8 calcium fluorescence, CHO RD-HGA16 cells, primary screen (AID 624466);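 note: 0% = DMSO plus EC80 beta-PEA response and 100% = DMSO alone without agonist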
- CONDITION CONTEXT: CHO RD-HGA16 TAAR1, Fluo-8 calcium fluorescence, antagonist; at 3 µM
In all, about 360,000 compounds went through this assay and about 5,400 (1.5%) were called active.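 Rule for the calls: active = inhibition above a per-plate cutoff, the mean inhibition of test compounds on that plate plus 3 SD (cut at about 49% in these data); inactive = the rest.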 The sample as a whole holds a higher share of actives than the screen did.
Outcome codes: active, inactive

# SMILES REPRESENTATION, TARGET OR SYSTEM, CLASS LABEL
records = [
    ("c1ccc(Cn2nnc3c(NCC4CC4)ncnc32)cc1", "Trace amine-associated receptor 1 (Homo sapiens)", "inactive"),
    ("COC(=O)[C@]1(Cc2ccccc2)NC=C(C(=O)c2ccccc2)[C@@H]1c1cccc(OC)c1", "Trace amine-associated receptor 1 (Homo sapiens)", "inactive"),
    ("COc1cc(/C=N/NC(=S)Nc2cccnc2)cc(OC)c1O", "Trace amine-associated receptor 1 (Homo sapiens)", "inactive"),
    ("CCOc1ccccc1C(=O)N1CCC[C@@H]1C(=O)N1CCC[C@H]1C(=O)NCc1ccccc1", "Trace amine-associated receptor 1 (Homo sapiens)", "inactive"),
    ("COc1cccc(N2CCN(C(=O)Nc3ccc4c(c3)NC(=O)CO4)CC2)c1", "Trace amine-associated receptor 1 (Homo sapiens)", "inactive"),
    ("CC(C)CNc1cccc2c1S(=O)(=O)N[C@H](C)CO2", "Trace amine-associated receptor 1 (Homo sapiens)", "inactive"),
    ("COc1cc(OC)nc(N/N=C(\\c2ccccc2)c2ccncc2)n1", "Trace amine-associated receptor 1 (Homo sapiens)", "inactive"),
    ("CN(C)C(=O)N1CCN(C(=O)[C@@H](Cc2ccccc2)NC(=O)[C@H]2O[C@@H](n3ccc(N)nc3=O)[C@H](O)[C@@H]2O)CC1", "Trace amine-associated receptor 1 (Homo sapiens)", "inactive"),
    ("O=C(Nc1cccc(NC(=O)N2CCN(c3ccccc3)CC2)c1)N1CCN(c2ccccc2)CC1", "Trace amine-associated receptor 1 (Homo sapiens)", "active"),
    ("COc1cccc(Cn2cc(/C=N/NC(=O)c3cc(O)cc(O)c3)c3ccccc32)c1", "Trace amine-associated receptor 1 (Homo sapiens)", "inactive"),
    ("Cc1cc2nc(-c3ccc(F)cc3)c(Cc3ccsc3)n2c(C)c1Br", "Trace amine-associated receptor 1 (Homo sapiens)", "inactive"),
    ("COc1ccc(N2c3ccccc3CN(Cc3ccccc3)[C@@H](C)[C@H]2Cc2ccc(-c3ccccc3)cc2)cc1", "Trace amine-associated receptor 1 (Homo sapiens)", "inactive"),
]

====

- TARGET OR SYSTEM: Trace amine-associated receptor 1 (Homo sapiens) (UniProt Q96RJ0)
- Sequence (Q96RJ0 whole entry, looked up): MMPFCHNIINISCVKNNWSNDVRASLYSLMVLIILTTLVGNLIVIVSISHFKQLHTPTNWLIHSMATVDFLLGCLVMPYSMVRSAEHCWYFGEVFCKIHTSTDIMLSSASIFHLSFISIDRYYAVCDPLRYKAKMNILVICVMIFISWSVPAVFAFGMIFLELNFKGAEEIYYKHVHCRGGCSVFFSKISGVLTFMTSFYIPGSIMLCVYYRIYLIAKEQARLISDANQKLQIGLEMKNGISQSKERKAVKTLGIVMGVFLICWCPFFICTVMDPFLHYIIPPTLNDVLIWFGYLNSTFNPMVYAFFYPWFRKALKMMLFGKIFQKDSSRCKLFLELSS
- EXPERIMENTAL DETAILS: blockers of beta-PEA-driven TAAR1 calcium signal – Fluo-8 calcium fluorescence, CHO RD-HGA16 cells, primary screen (AID 624466);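 note: 0% = DMSO plus EC80 beta-PEA response and 100% = DMSO alone without agonist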
- CONDITION CONTEXT: CHO RD-HGA16 TAAR1, Fluo-8 calcium fluorescence, antagonist; at 3 µM; hits give high values
In all, about 360,000 compounds went through this assay and about 5,400 (1.5%) were called active. This is one part of a sample in which actives are shown more often than they occur.
OUTCOME MEASURE: inhibition (%)

# COMPOUND, READING
measured = [
    ("CCCNC(=S)N1CCCC(c2nc3ccccc3[nH]2)C1 (stereo not drawn)", 1.96),
    ("Brc1ccc(COCCc2cn(Cc3ccccc3)c3ccccc23)cc1", -22),
    ("COC(=O)[C@@]1(Sc2ccc(C)cc2)CC(=O)N(c2cccc(SC)c2)[C@@H]1c1ccccc1", 67.8),
]
